Source listed as paper PMC11513842.

- assaySummary: Pharmacokinetic profile in CD-1 mice
- Format: in vivo
- conditionDescription: plasma, iv; CD-1 mouse, i.v. 2.5 mg/kg
quantityKind: AUC(0-t) (µg·h/mL)
# number only, unit µg·h/mL dropped from output

Looking up O=C1CCC(N2C(=O)c3cccc(OCC(=O)N4CCN(c5ccc(N(C(=O)NCc6ccccc6)C6CCC(Nc7ncc8ccccc8n7)CC6)cc5)CC4)c3C2=O)C(=O)N1 (stereo not shown) [YJ9069] , I see its AUC(0-t) listed as 3.15

* * *

- assaySummary: Pharmacokinetic profile in Sprague Dawley rats
- Format: in vivo, rat
- conditionDescription: Sprague-Dawley, rat, plasma; SD rats, oral 10 mg/kg vs i.v. 2.5 mg/kg; read-out: F(%) (bioavailability by oral gavage)
quantityKind: bioavailability (%)
# number only, unit % dropped from output

Looking up O=C1CCC(N2C(=O)c3cccc(OCC(=O)N4CCN(c5ccc(N(C(=O)NCc6ccccc6)C6CCC(Nc7ncc8ccccc8n7)CC6)cc5)CC4)c3C2=O)C(=O)N1 (stereo not shown) [YJ9069] , I see its bioavailability listed as 0.04

* * *

- assaySummary: Pharmacokinetic profile in Sprague Dawley rats
- Format: in vivo, rat
- conditionDescription: Sprague-Dawley, rat, plasma, iv; SD rats, i.v. 2.5 mg/kg
quantityKind: half-life (h)
# number only, unit h dropped from output

Looking up O=C1CCC(N2C(=O)c3cccc(OCC(=O)N4CCN(c5ccc(N(C(=O)NCc6ccccc6)C6CCC(Nc7ncc8ccccc8n7)CC6)cc5)CC4)c3C2=O)C(=O)N1 (stereo not shown) , I see its half-life listed as 4.39

* * *

- assaySummary: Pharmacokinetic profile in Sprague Dawley rats
- Assay type: in vivo, rat
- conditionDescription: Sprague-Dawley, rat, plasma, iv; SD rats, i.v. 2.5 mg/kg
quantityKind: clearance (mL/min/kg)
# number only, unit mL/min/kg dropped from output

Looking up O=C1CCC(N2C(=O)c3cccc(OCC(=O)N4CCN(c5ccc(N(C(=O)NCc6ccccc6)C6CCC(Nc7ncc8ccccc8n7)CC6)cc5)CC4)c3C2=O)C(=O)N1 (stereo not shown) , I see its clearance listed as 14.1

* * *

- assaySummary: Pharmacokinetic profile in Sprague Dawley rats
- Assay type: in vivo, rat
- conditionDescription: SD rats, i.v. 2.5 mg/kg
quantityKind: Cmax (nM)
# number only, unit nM dropped from output

{"compound": "O=C1CCC(N2C(=O)c3ccc(N4CCC(N5CCN(c6ccc(N(C(=O)NCc7ccccc7)C7CCC(Nc8ncc9ccccc9n8)CC7)cn6)CC5)CC4)cc3C2=O)C(=O)N1 (centres unmarked) [YJ1205]", "Cmax [nM]": 4140}

For the next question, use this compound.
Looking up O=C1CCC(N2C(=O)c3ccc(N4CCC(N5CCN(c6ccc(N(C(=O)NCc7ccccc7)C7CCC(Nc8ncc9ccccc9n8)CC7)cc6)CC5)CC4)cc3C2=O)C(=O)N1 (centres unmarked) [YJ1105] , I see its Cmax listed as 1580

* * *

- Test system: VCaP cells
- assaySummary: Cell viability assay (CellTiter-Glo, 5 days)
- Assay type: cell-based, human
- conditionDescription: VCaP cells, 5 days, Figure S1E; read-out: IC50
quantityKind: IC50 (nM)
# number only, unit nM dropped from output

Looking up "O=C(NCc1ccccc1)N(c1ccc(N2CCNCC2)cc1)[C@H]1CC[C@H](Nc2ncc3ccccc3n2)CC1" , I see its IC50 listed as 1080
